# protocol.summary: NCI Yeast Anticancer Drug Screen. Data for the mlh1 rad18 strain (AID 175)
# stated.conditions: S. cerevisiae mlh1 rad18 strain growth inhibition; at 50.0 µM unless noted
The panel holds about 79,000 compounds, 15% with a hit somewhere; the sample as a whole holds those more often. Activity calls are given as the source filed them. No stated cut-off is given here; in the data, active means growth inhibition above about 70%; inactive means the rest.
Your reply should match one of these outcome classes. active, inactive

INSERT INTO assay_data (compound, category) VALUES
  ('CC/C(CC(=O)CCC(=O)Nc1ccc(C)c(C)c1)=N\NC(=O)c1cc2ccccc2cc1O', 'inactive'),
  ('C=C(Br)CN(C#N)CC(=C)Br', 'inactive'),
  ('OCC(O)COc1ccc(F)cc1 (centres undefined)', 'inactive'),
  ('C#CC(C)(O)CCC(C)C (centres undefined)', 'inactive'),
  ('CC(C)(C)C(=O)/C(=C/C(=O)O)C(C)(C)C', 'inactive');

Switching to the query record.
Problem: Called result for "ClC1=C(Cl)C(Cl)(Cl)c2c3c(c4c(c21)C(Cl)(Cl)C(Cl)=C4Cl)C(Cl)(Cl)C(Cl)=C3Cl"
Result: inactive

---

# protocol.summary: NCI Yeast Anticancer Drug Screen. Data for the mlh1 rad18 strain (AID 175)
# stated.conditions: S. cerevisiae mlh1 rad18 strain growth inhibition; at 50.0 µM unless noted
About 79,000 compounds went through this panel and 15% of them were active in at least one assay; those are over-represented in the sample as a whole. Active and inactive are the calls of the source. No stated cut-off is given here; in the data, active means growth inhibition above about 70%; inactive means the rest.
Write down one outcome, taken from active, inactive

INSERT INTO measurements (compound, category) VALUES
  ('O=C(Nc1nncs1)c1cnccn1', 'inactive'),
  ('CN(C)c1cccc2c(S(=O)(=O)NCCCNCCN)cccc12', 'inactive'),
  ('COc1ccc(/C(CC2OC(=O)c3ccccc32)=N\NC(=O)C[N+](C)(C)C)cc1 (stereo not drawn)', 'inactive'),
  ('CN(C1=CC(=O)c2ccccc2C1=O)C1CCCCC1', 'inactive'),
  ('COc1cccc(/C=C/c2ccnnc2)c1', 'inactive'),
  ('O=C1c2ccccc2C(=O)c2c3c(cc(NCCNCCO)c21)N(CCO)CCN3', 'inactive'),
  ('Cc1ccc(N2C(=O)CC(N3CCCCC3)C2=O)cc1 (stereo not drawn)', 'active'),
  ('ClCCCCCNC1CCCCC1', 'inactive');

Problem: Given CC(=O)OC1CCC2(C)C3CCC4(C)C(C(C)CCCC(C)C)CCC4C3C3CC32C1 (stereo not drawn) , state the outcome it received in this test.
Result: inactive

Problem: Moving on to "O=C(O)C(=O)Nc1ccccc1"
Result: inactive

Problem: Can you handle CCCOc1cc2c(cc1C(C)c1ccc(OC)c(C)c1)OCO2 (stereo not drawn) next?
Result: inactive

Problem: Also, "COc1cc(N=Nc2c(N)nc(N)[nH]c2=O)c(OC)cc1Cl" please.
Result: inactive

Problem: Let us now turn to "CCOC(=O)O/C(=C\c1ccc(OC)cc1)c1c(OC(=O)OCC)n(C(=O)OCC)c2ccccc12"
Result: inactive

Problem: Also check "CCCCNC(=O)/C=C/C(=O)NCCCC"
Result: inactive

---

# protocol.summary: NCI Yeast Anticancer Drug Screen. Data for the sgs1 mgt1 strain (AID 161);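 further: 0% = growth of cultures given vehicle only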
# stated.conditions: S. cerevisiae sgs1 mgt1 strain; at 50.0 µM unless noted
This is part of a sample that, as a whole, favours compounds with a hit. Of some 79,000 tested, about 15% had one in any assay. Calls of active or inactive are those of the source. Cut-off read from the data, not from the text of the source: active = growth inhibition above about 70%; inactive = the rest.
Give one outcome, nothing more. List: active, inactive

Below are worked cases with known answers.
INSERT INTO results (compound, category) VALUES
  ('CCN(CC)C(=O)C1CCN(CCOc2ccccc2)CC1', 'inactive'),
  ('O=C(O)C(Cc1cccs1)C(=O)O', 'inactive'),
  ('CCCCCCN(CCCCCC)CC(O)c1cc(-c2ccc(Cl)cc2)nc2c(Cl)cccc12 (configuration not stated)', 'inactive'),
  ('CCOC(=O)c1cc(/C=C/C(C)=C/C(=O)OC)n(C)c1C', 'active'),
  ('C=CC(=O)Nc1ccccc1', 'inactive');

Problem: What outcome does the record of this test show for "CCCCNC(=S)NNC(=O)c1ccncc1" ?
Result: inactive

Problem: What do you have for "COC(=O)C1=Nc2c(C)nn(-c3ccccc3)c2N=C(c2ccc([N+](=O)[O-])cc2)C1" ?
Result: inactive

Problem: Next: NC1=NCC(CN2CCCCC2)O1 (configuration not stated)
Result: inactive

---

# protocol.summary: NCI Yeast Anticancer Drug Screen. Data for the bub3 strain (AID 167)
# stated.conditions: S. cerevisiae bub3 mutant strain, active compounds read high; at 50.0 µM unless noted
# Protocol: Growth inhibition of yeast strains with defined genetic alterations is measured as a screen for potential anti-cancer activity. Selected strains with alterations in DNA damage repair or cell cycle control were exposed to compounds and growth inhibition was measured relative to vehicle treated controls. The strain used in this assay is bub3
About 79,000 compounds went through this panel and 15% of them were active in at least one assay; those are over-represented in the sample as a whole.
Recorded growth inhibition values for a group of compounds are listed next.
Quick note: give the figure in %, leave out the unit.

INSERT INTO results (compound, value_type, unit_info, measured_value) VALUES
  ('CC(=O)c1sc2[n+](c1C)C(=O)/C(=C\c1ccccc1Cl)S2', 'growth inhibition', '%', -7.75),
  ('CCOC(=O)C(=O)C(NC(=O)Cc1ccccc1)C(=O)OCC (configuration not stated)', 'growth inhibition', '%', -0.25),
  ('O=C(O)CCC1NC(/C(=C/c2ccccc2O)NC(=O)c2ccccc2)OC1=O (configuration not stated)', 'growth inhibition', '%', -8.25),
  ('O=C(CCl)Nc1cc2ccccc2oc1=O', 'growth inhibition', '%', 5.45),
  ('CC(C)COC(=O)c1ccccc1', 'growth inhibition', '%', -9.6);

Problem: Could you share which growth inhibition value was measured for C=C1C(=O)OC2C3[C@@]4(C)O[C@H]4[C@H]4O[C@@]34[C@](C)(O)CC(OC(C)=O)[C@@H]12 (some centres not stated) ?
Result: -24.4

Problem: Next record, please: "CN(C)C1=NS(=O)(=O)c2ccccc21"
Result: 6.35

Problem: How about "N.N.O=P([O-])([O-])C1(P(=O)([O-])[O-])CCCCCN1.[Pt+2]" ?
Result: 23.7

Problem: Input O=C(Nc1cc(Cl)c(Cl)cc1Cl)C(=O)C(C(=O)c1ccccc1)C1OC(=O)c2ccccc21 (configuration not stated)
Result: -10.2

Problem: Queued: "CSc1ccc(Cl)cc1"
Result: -1.2

Problem: Similarly, COC(=O)/C=C(/Sc1nc(Cl)c(Cl)nc1N)C(=O)OC (tested in a mixture with another compound) ?
Result: -29.5

Problem: What about this compound? "N#Cc1sc2c(c1OC(=O)c1cccs1)c(=O)n(-c1ccccc1)c(=S)n2-c1ccccc1"
Result: 25.8

Problem: Also "OCc1ccccc1Sc1ccccc1CO" ?
Result: -31.6

Problem: And what about the compound "CCOC(=O)/C(Cc1cc[n+]([O-])cc1)=N/O" ?
Result: 13.6

Problem: CCOC(=O)C(c1ccc2c(c1)OCO2)C1(NC(=O)c2ccccc2)C(=O)C(C(=O)OC)C(=O)C1C(=O)OC (configuration not stated) , same question.
Result: 1.4

Problem: "COc1ccc(C(=O)/C=C/c2ccc(OCC#N)cc2)cc1OC" , same question.
Result: -33

Problem: Proceed to "[O-]c1nn(-c2ccccc2)n[n+]1-c1ccccc1"
Result: -10.8

Problem: # repeat for "O=C(NCCCN1CCN(CCCNC(=O)Nc2ccc(N=Nc3ccccc3)cc2)CC1)Nc1ccc(N=Nc2ccccc2)cc1"
Result: -1.8

Problem: Would you kindly repeat that for "C=C(c1c(C)cccc1OC(C)=O)c1c(C)cccc1OC(C)=O" ?
Result: 17.3

Problem: Note, next up: "COc1ccc(OC)c(N)c1"
Result: 3.6

---

# protocol.summary: NCI Yeast Anticancer Drug Screen. Data for the cln2 rad14 strain (AID 165);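 further: 0% = growth equal to vehicle treated cultures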
# stated.conditions: S. cerevisiae cln2 rad14 strain, active compounds read high; at 50.0 µM unless noted
Compounds without any hit were thinned out: in the full panel of roughly 79,000, 15% have a hit.
Everything with growth inhibition lower than -10% is FALSE; everything else, including exactly -10%, is TRUE.

Before answering, review these 5 worked examples.
INSERT INTO measurements (molecule, category) VALUES
  ('CS1(C)=Nc2c([N+](=O)[O-])cc([N+](=O)[O-])cc2S(=O)(=O)N=1', 'FALSE'),
  ('CN1NC(c2ccccc2)=C(C#N)C(=O)CC1c1ccccc1 (stereo not given)', 'TRUE'),
  ('Cc1ccc([N+](=O)[O-])cc1NC(=O)N(Cc1ccccc1)Cc1ccccc1', 'TRUE'),
  ('C/C(=C\c1ccc(N(C)C)cc1)c1ccncc1', 'TRUE'),
  ('COc1cc(OC)c(I)cc1Cl', 'TRUE');

Problem: Identify whether the reported growth inhibition of the following molecule is -10% or greater: "O=S1(=O)C(=C(c2ccccc2)c2ccccc2)S(=O)(=O)c2ccccc21"
Result: TRUE
